Test system: HIV-1 Y181C
assay-protocol: microbe, parasite or virus in culture
Format: cell-based, human immunodeficiency virus type 1 (HIV-1)
condition-context: Human immunodeficiency virus 1, read-out: EC50 Y181C (nM), Y181C mutant
property-name: EC50

> print(dat)
                                smiles.entry  property.name   measurement
 1  N#Cc1ccc(Nc2nc(Nc3ccc4c(c3)CCC4)c3nc[nH]c3n2)cc1           EC50      > 100 nM
 2  N#Cc1ccc(Nc2nc(Nc3ccc(C#N)cc3)c3nc[nH]c3n2)cc1           EC50      > 100 nM
 3  Cc1cc(Br)cc(C)c1Oc1nc(Nc2ccc(C#N)cc2)nc2ccn(Cc3ccccc3)c12           EC50  10 to 100 nM
 4  Cc1cc(C)c(Sc2nc(Nc3ccc(C#N)cc3)nc3cc[nH]c23)c(C)c1           EC50       < 10 nM
 5  Cc1cc(C#N)cc(C)c1Oc1nc(Nc2ccc(C#N)cc2)nc2c(Cl)cn(Cc3ccccc3)c12           EC50  10 to 100 nM
 6  CC(=O)c1cc(C)c(Oc2nc(Nc3ccc(C#N)cc3)nc3cc[nH]c23)c(C)c1           EC50       < 10 nM
 7  Cc1ccc(Nc2nc(Nc3ccc(C#N)cc3)nc3[nH]cnc23)c2ccccc12           EC50  10 to 100 nM
 8  Cc1cc(C)c(Nc2nc(Nc3ccc(C#N)cc3)nc3[nH]cnc23)c(C)c1           EC50       < 10 nM
 9  COc1ccc(Nc2nc(Oc3c(C)cc(C)cc3C)c3nc[nH]c3n2)cc1           EC50  10 to 100 nM
10  N#Cc1ccc(Nc2nc(Oc3ccc(Cl)c4ccccc34)c3nc[nH]c3n2)cc1           EC50  10 to 100 nM
11  Cc1cc(C)c(Oc2nc(Nc3cccc(C#N)c3)nc3[nH]cnc23)c(C)c1           EC50  10 to 100 nM
12  Cc1cc(C#N)cc(C)c1Oc1nc(Nc2ccc(C#N)cc2)nc2[nH]cnc12           EC50       < 10 nM
13  Cc1cc(Cl)cc(C)c1Oc1nc(Nc2ccc(C#N)cc2)nc2c(Cl)cn(C)c12           EC50       < 10 nM
14  Cc1cc(C)c(Sc2nc(Nc3ccc(C#N)cc3)nc3c(Cl)cn(Cc4ccccc4)c23)c(C)c1           EC50  10 to 100 nM
15  Cc1cc(C)c(Oc2nc(Nc3cccc(C(F)(F)F)c3)nc3[nH]cnc23)c(C)c1           EC50      > 100 nM
16  Cc1cc(C)c(Oc2nc(Nc3ccc(C(N)=O)cc3)nc3[nH]cnc23)c(C)c1           EC50      > 100 nM
17  CC(=O)c1cc(C)c(Oc2nc(Nc3ccc(C#N)cc3)nc3ccn(Cc4ccccc4)c23)c(C)c1           EC50       < 10 nM
18  Cc1cc(C2CC2)cc(Cl)c1Nc1nc(Nc2ccc(C#N)cc2)nc2[nH]cnc12           EC50  10 to 100 nM
